Test system: field corn (Zea mays L., var. Dekalb 535, CORN)
Assay: Pre-emerge test, crop safety
Assay type: in vivo
Conditions: pre-emerge, 250 g ai/ha, 14 days after application, scale 0-100
Output schema: class label derived from phytotoxicity rating CORN (crop damage). Mapping: low range (below 10), mid range (10 to below 30), high range (30 or more)

In [3]: df
Out[3]:
                                   compound       group
0  COc1c(Cl)cc(F)c(-n2c(=O)cc(C(F)(F)F)n(C)c2=O)c1NC(=O)CCc1ccccc1C  high range

Lab note: which band did COc1cc2ccccc2cc1C(=O)Nc1c(OC)c(Cl)cc(F)c1-n1c(=O)cc(C(F)(F)F)n(C)c1=O land in?
low range

Now the same for Cn1c(C(F)(F)F)cc(=O)n(-c2ccc(C#N)cc2NC(=O)C=Cc2ccccc2)c1=O
high range

Now the same for COc1c(C#N)cc(F)c(-n2c(=O)cc(C(F)(F)F)n(C)c2=O)c1NC(=O)c1ccc2ccccc2c1 [2-180]
low range

Now the same for CCCSCC(=O)Nc1c(OC)c(Cl)cc(F)c1-n1c(=O)cc(C(F)(F)F)n(C)c1=O
high range

Now the same for COc1c(Cl)cc(F)c(-n2c(=O)cc(C(F)(F)F)n(C)c2=O)c1NC(=O)C(C#N)=Cc1ccccc1
low range

* * *

Tested on: upland rice (Oryza sp., var. Tebonnet, RICE)
Test: Post-emerge test, crop safety
Format: in vivo
Details: 63 g ai/ha; phytotoxicity rating 0-100 (0 no damage, 100 complete death), 14 days after application
Procedure: A standard greenhouse herbicide activity screening system was used to evaluate the herbicidal efficacy and crop safety of these test compounds. […] At 14 days after application of the test materials, phytotoxicity ratings were recorded. […]
Observable: Post-emerge Herbicidal Activity RICE (crop damage)
Answer using only a numeral; do not append any unit.

Example entries and their recorded answers appear below.
>>> df
                               entry_smiles  readout_value
0  Cc1c(Cl)cc(F)c(-n2c(=O)cc(C(F)(F)F)n(C)c2=O)c1N             25
1  COc1c(Cl)cc(F)c(-n2c(=O)cc(C(F)(F)F)n(C)c2=O)c1NC(=O)c1ccc(C(C)(C)C)cc1              0
2  COc1c(Cl)cc(F)c(-n2c(=O)cc(C(F)(F)F)n(C)c2=O)c1NC(=O)C1CCCCC1              0
3  C#CCOc1c(Cl)cc(F)c(-n2c(=O)cc(C(F)(F)F)n(C)c2=O)c1N             25
4  COc1c(Cl)cc(F)c(-n2c(=O)c(N)c(C(F)(F)F)n(C)c2=O)c1N              0

What value of Post-emerge Herbicidal Activity RICE (crop damage) has been reported for the following molecule? Cn1c(C(F)(F)F)cc(=O)n(-c2c(F)cc(Cl)c(OCC#N)c2NC(=O)C(F)(F)F)c1=O
0

Now the same for CCCc1ccc(C(=O)N(C(=O)c2ccc(CCC)cc2)c2c(OC)c(Cl)cc(F)c2-n2c(=O)cc(C(F)(F)F)n(C)c2=O)cc1
40

Now the same for COc1c(Cl)cc(F)c(-n2c(=O)cc(C(F)(F)F)n(C)c2=O)c1NC(=O)C(F)(F)F
0

* * *

Catalogue of Post-emerge Herbicidal Activity CORN (crop damage rating) readings, one per entry.
Tested on: field corn (Zea mays L., var. Dekalb 535, CORN)
Assay: Post-emerge test, crop safety
Type: in vivo
Conditions: 250 g ai/ha; post-emerge; 14 days after application; rating scale 0-100
Answer using only a numeral; do not append any unit.

// map CCOC(=O)NNc1c(OC)c(Cl)cc(F)c1-n1c(=O)cc(C(F)(F)F)n(C)c1=O [15-6] to recorded Post-emerge Herbicidal Activity CORN (crop damage rating) (system: field corn (Zea mays L., var. Dekalb 535, CORN))
80

Now the same for CCCOC(=O)C(Cl)Cc1c(OCC)c(Cl)cc(F)c1-n1c(=O)cc(C(F)(F)F)n(C)c1=O (stereo not drawn) [14-65]
50

Now the same for COc1c(Cl)cc(F)c(-n2c(=O)cc(C(F)(F)F)n(C)c2=O)c1NNC(=O)Oc1ccccc1 [15-7]
80

* * *

Catalogue of Pre-emerge phytotoxicity rating, crop damage CORN readings, one per entry.
Tested on: field corn (Zea mays L., var. Dekalb 535, CORN)
Assay: Pre-emerge test, crop safety
Format: in vivo
Conditions: 63 g ai/ha; rating scale 0-100, 14 days after application
Answer using only a numeral; do not append any unit.

>>> df
                                   compound  readout_value
0  COc1c(Cl)cc(F)c(-n2c(=O)cc(C(F)(F)F)n(C)c2=O)c1CC(Cl)C(=O)OCCOc1ccccc1 (single isomer, unassigned) [14-27]              0
1  CCCCOC(=O)C(C)(Cl)Cc1c(OC)c(Cl)cc(F)c1-n1c(=O)cc(C(F)(F)F)n(C)c1=O (stereo not drawn)              0

What value of Pre-emerge phytotoxicity rating, crop damage CORN has been reported for the following compound? CCCCCOC(=O)C(Cl)Cc1c(OC)c(Cl)cc(F)c1-n1c(=O)cc(C(F)(F)F)n(C)c1=O (single isomer, unassigned) [14-11]
0

* * *

System: lambsquarters (Chenopodium album, CHEAL)
Assay: Pre-emerge test, greenhouse herbicide activity screening
Format: in vivo
Conditions: 250 g ai/ha; pre-emerge; rated 14 days after application; 0 = no damage, 100 = complete death
Observable: Pre-emerge Herbicidal Activity CHEAL (phytotoxicity rating, scale 0-100)
Answer using only a numeral; do not append any unit.

Example entries and their recorded answers appear below.
In [3]: df
Out[3]:
                               entry_smiles  readout_value
0  COc1c(Cl)cc(F)c(-n2c(=O)cc(C(F)(F)F)n(C)c2=O)c1NC(=O)C(F)(F)F            100
1  C=C(C)C(=O)N(C(=O)C(=C)C)c1c(OC)c(Cl)cc(F)c1-n1c(=O)cc(C(F)(F)F)n(C)c1=O              0
2  Cn1c(C(F)(F)F)cc(=O)n(-c2c(F)cc(Cl)c(O)c2N)c1=O             70

What value of Pre-emerge Herbicidal Activity CHEAL (phytotoxicity rating, scale 0-100) has been reported for the following molecule? COc1c(Cl)cc(F)c(-n2c(=O)cc(C(F)(F)F)n(C)c2=O)c1NC(=O)C(C)(C)C
100

Now the same for CCCc1ccc(C(=O)N(C(=O)c2ccc(CCC)cc2)c2c(OC)c(Cl)cc(F)c2-n2c(=O)cc(C(F)(F)F)n(C)c2=O)cc1
100

Now the same for Cn1c(C(F)(F)F)cc(=O)n(-c2c(F)cc(Cl)c(OC3CCCC3)c2N)c1=O
100

Now the same for COc1c(Cl)cc(F)c(-n2c(=O)cc(C(F)(F)F)n(C)c2=O)c1NS(=O)(=O)c1ccc(C)cc1
90

Now the same for COc1c(Cl)cc(F)c(-n2c(=O)cc(C(F)(F)F)n(C)c2=O)c1N=C(Cl)C(Cl)(Cl)Cl
100

Now the same for COc1c(Cl)cc(F)c(-n2c(=O)cc(C(F)(F)F)n(C)c2=O)c1N(C(=O)C1CC1)C(=O)C1CC1
90

Now the same for Cc1c(Cl)cc(F)c(-n2c(=O)cc(C(F)(F)F)n(C)c2=O)c1N
100

* * *

Tested on: upland rice (Oryza sp., var. Tebonnet, RICE)
Experiment: Pre-emerge test, crop safety
Type: in vivo
Details: 250 g ai/ha; crop damage rating 0-100, 14 days after application
Observable: Pre-emerge Herbicidal Activity RICE
Answer using only a numeral; do not append any unit.

>>> df
                               entry_smiles                           observable  readout_value
0  COc1c(Cl)cc(F)c(-n2c(=O)cc(C(F)(F)F)n(C)c2=O)c1NC(=O)OCc1c(F)c(F)c(F)c(F)c1F  Pre-emerge Herbicidal Activity RICE             70
1  CCCCCC(=O)Nc1c(OC)c(Cl)cc(F)c1-n1c(=O)cc(C(F)(F)F)n(C)c1=O  Pre-emerge Herbicidal Activity RICE             80
2  COc1c(Cl)cc(F)c(-n2c(=O)cc(C(F)(F)F)n(C)c2=O)c1NC(=O)OCc1ccc(C(C)C)cc1  Pre-emerge Herbicidal Activity RICE              0
3  CCOC(=O)COc1c(Cl)cc(F)c(-n2c(=O)cc(C(F)(F)F)n(C)c2=O)c1NC(=O)C=Cc1ccccc1  Pre-emerge Herbicidal Activity RICE             20
4  Cn1c(C(F)(F)F)cc(=O)n(-c2ccc(Cl)cc2NC(=O)C2CC2)c1=O  Pre-emerge Herbicidal Activity RICE             30

What value of Pre-emerge Herbicidal Activity RICE has been reported for the following compound? COc1c(Cl)cc(F)c(-n2c(=O)cc(C(F)(F)F)n(C)c2=O)c1NC(=O)OCc1ccc(C(F)(F)F)cc1
10

Now the same for COc1c(Cl)cc(F)c(-n2c(=O)cc(C(F)(F)F)n(C)c2=O)c1NC(=O)OCc1ccc2c(c1)OCO2
80

Now the same for COC(=O)N(C(=O)OC)c1c(OC)c(Cl)cc(F)c1-n1c(=O)cc(C(F)(F)F)n(C)c1=O
20

FYI, the data here is from patent US6355799B1.
